# system-name: Matrigel growth factor reduced LDEV free (basement membrane extract rich in collagen IV and laminin)
# assay-protocol: competition of phage-displayed peptide against synthetic peptide on Matrigel
No end group written: not given here.
measure-name: IC50 (nM)
# number only, unit nM dropped from output

Req: Returns the measured IC50 for the input binder. Input: KLWVLPKGGGC-NH2 [synthetic peptide modeled after phage clone C-11 (…-Am)]
Resp: 114
